Source of measurements: patent US9926299B2

This section lists IC50 readings for BTK kinase (Homo sapiens (Human), UniProt Q06187).

# get_value(readout= IC50, system= BTK kinase (Homo sapiens (Human), UniProt Q06187)) for CN(C)C/C=C/C(=O)N(C)CCn1nc(-c2ccc(Oc3ccccc3)cc2)c(C(N)=O)c1N [Example 35]
< 100 nM

Now give it for C=CC(=O)N1CCCC(n2nc(-c3ccc(Oc4ccccc4)cc3)c(C(N)=S)c2N)C1 (stereo not drawn) [Example 37] too.
< 100 nM

For C=CC(=O)N1CC[C@@H](n2nc(-c3ccc(Oc4cccc(C(F)(F)F)c4)cc3)c(C(N)=O)c2N)C1 [Example 44] then?
< 100 nM
